Lab note: GI50 readings collected with HCT-15 for the following molecules.

Item CS(=O)(=O)CCC1CCC(=O)O1 (stereo unspecified) has what recorded GI50?
> 100 µM

Which measured GI50 value corresponds to Cc1ccc(S(=O)(=O)c2ccccc2[N+](=O)[O-])cc1 ?
> 100 µM

Which GI50 is reported for this molecule? CSCCC(NCc1c(O)ccc2ccc(=O)oc12)C(=O)O (stereo unspecified)
> 100 µM

// returns reported GI50 for input OC(COc1cccc2ccccc12)CN1CCOCC1 (stereo unspecified)
> 100 µM

Entry under review: O=C(CCCn1cnc([N+](=O)[O-])n1)NCCn1ccnc1[N+](=O)[O-] . Reported GI50?
> 100 µM

Quick one: GI50 for C1CC[N+]23CCCC[N+]2(C1)CCCC3 (stereo unspecified) ?
> 100 µM

Reported GI50 for [N-]=[N+]=NCC(O)Cn1cnc2c(NC(=O)c3ccccc3)ncnc21 (stereo unspecified) : what is it?
> 100 µM

Fill in: GI50 of CC[C@H](C)[C@H]1NC(=O)[C@@H](NC(=O)[C@@H](CC(C)C)N(C)C(=O)C2CCCN2C(=O)[C@H](C)O)[C@@H](C)OC(=O)[C@@H]2Cc3ccccc3CN2C(=O)[C@@H]2CCCN2C(=O)[C@H](CC(C)C)NC(=O)[C@@H](C)C(=O)[C@H](C(C)C)OC(=O)C[C@@H]1O (stereo partly specified) is ___
> 47.2 µM

Look up GI50 for this molecule: CCCCNC(=O)c1cc(S(=O)(=O)n2ccnc2O)c(SC)cc1Cl
> 100 µM

What does the data say about its GI50? Entry: CC(C)NCCC(O)c1cc2ccccc2o1 (stereo unspecified)
> 100 µM

Entry CCc1cc2c(oc3cc(C)ccc32)c(=O)n1C : reported GI50 = ?
> 10 µM

# get_value(readout='GI50', item= CC(=O)Oc1cccc2c1C(=O)CCCC2 )
> 100 µM

GET /values?readout=GI50&item= CC(=O)NS(=O)(=O)c1ccc(NC(=O)COC(=O)c2cccc3c(=O)c4ccccc4[nH]c23)cc1
> 100 µM

Returns the measured GI50 for the input molecule. Input: COC(=O)C(=O)C(C(=O)C(=O)Nc1ccc(F)cc1)c1nc2ccc([N+](=O)[O-])cc2nc1O (stereo unspecified)
> 100 µM

Look up GI50: NC1CC(=O)c2c1sc(Cl)c2Cl (stereo unspecified)
> 100 µM

Please report the recorded GI50 for C[Si](C)(C)/C(Br)=C\CCN1C(=O)CCC1=O .
> 100 µM

Report GI50 for COC(=O)C1=C(C(=O)OC)C23C=CC=CC24C(C(=O)OC)=C(C(=O)OC)C4C1C3 (stereo unspecified) please.
59.8 µM

# input molecule: O=C(NC(=S)Nc1ccc(Br)cc1)c1ccc2c(c1)Sc1ccccc1O2 ; wanted: its GI50
> 100 µM

What GI50 value was documented for this molecule, C/C(=N\NS(=O)(=O)c1ccccc1)c1ccc(Cl)c(Cl)c1 ?
57 µM

Would you kindly share the measured GI50 for C[Si](C)(C)/C=C\CCCN1C(=O)CCC1=O ?
> 100 µM

What value of GI50 has been reported for the following molecule? C=C1[C@H](OCC(C)C)[C@@H](OCC(C)C)[C@@H](O)C(C)(C)/C=C/[C@H](C)C(=O)[C@@]2(O)C[C@H](C)[C@H](O)[C@@H]2[C@H]1OCC(C)C
6.92 µM

I am curious: what GI50 value has been reported for Cc1cccc2c(=O)c3c(O)cc(O)cc3n(C)c12 ?
> 100 µM

Bench note: what GI50 did c1cc2cc3c4c5c(cc6ccc7cc8cc9c%10c8c8c7c6c5c8c5c%10c(c1C9N1CCOCCOCCOCCOCCOCC1)c2c45)C3 (stereo unspecified) show?
> 100 µM

Which value of GI50 has been reported for Nc1ncnc2c1N=CN(Oc1ccccc1)N2 in the records?
> 100 µM

Query (molecule): O=c1c(-c2ccccc2)c(SCCN2CCOCC2)n(-c2ccccc2)c(=S)n1-c1ccccc1 ; field requested: GI50
> 100 µM

Report GI50 for NC(CC(O)(c1ccccc1)c1ccccc1)c1ccccc1S (stereo unspecified) please.
15.2 µM
